assay: Selectivity index, ratio CC50 for human HEL cells to EC50 for Herpes simplex virus 1 strain KOS; format: toxicity, cell-based; details: read-out: Ratio CC50/EC50
MEASURED_METRIC: selectivity ratio
Respond with the number and no other words.

QUERY: Supply measured selectivity ratio of CC(CP(=O)(O)O)OCCn1cnc2c(N)ncnc21 (configuration not stated) in your reply.
RESULT: 6

QUERY: Supply measured selectivity ratio of `Nc1ccn(C[C@@H](CO)OCP(=O)(O)O)c(=O)n1` in your reply.
RESULT: 322

###

tested on: CCRF-CEM; assay: Cytostatic activity against human CEM cells; format: cell-based
Kindly supply the reported CC50 values for the records listed here.
Report the value in µM with no unit label.

QUERY: Supply measured CC50 of Nc1ncnc2c1ncn2CCOC(Cc1ccccc1)CP(=O)(O)O (stereo not drawn) in your reply.
RESULT: 530

QUERY: Supply measured CC50 of CC(CP(=O)(O)O)OCCn1cnc2c(N)ncnc21 (stereo not drawn) in your reply.
RESULT: 20

###

test: Selectivity index, ratio CC50 for human HEL cells to EC50 for thymidine kinase-deficient Varicella-zoster virus YS/R; type: toxicity, cell-based; conditions: read-out: Ratio CC50/EC50
MEASURED_METRIC: selectivity ratio
Respond with the number and no other words.

QUERY: Supply measured selectivity ratio of CC(CP(=O)(O)O)OCCn1cnc2c(N)ncnc21 (configuration not stated) in your reply.
RESULT: 120

QUERY: Supply measured selectivity ratio of Nc1ccn(C[C@@H](CO)OCP(=O)(O)O)c(=O)n1 [CIDOFOVIR] in your reply.
RESULT: 880

###

Kindly supply the reported EC50 values for the records listed here.
system: Human betaherpesvirus 5; assay: Antiviral activity against Human cytomegalovirus strain AD169 assessed as reduction of virus induced cytopathicity by cell based assay; format: functional, organism-based; settings: Human betaherpesvirus 5, AD169
Report the value in µM with no unit label.

QUERY: Supply measured EC50 of Cc1cn(CCOC(C)CP(=O)(O)O)c(=O)[nH]c1=O (centres undefined) in your reply.
RESULT: 188

QUERY: Supply measured EC50 of CC(CP(=O)(O)O)OCCn1ccc(=O)[nH]c1=O (centres undefined) in your reply.
RESULT: 36

QUERY: Supply measured EC50 of CCC(CP(=O)(O)O)OCCn1cnc2c(N)ncnc21 (centres undefined) in your reply.
RESULT: 159

QUERY: Supply measured EC50 of Nc1ncnc2c1ncn2CCOC(Cc1ccccc1)CP(=O)(O)O (centres undefined) in your reply.
RESULT: 59

###

system: Human alphaherpesvirus 3; assay: Antiviral activity against Varicella-zoster virus strain OKA expressing thymidine kinase assessed as reduction of virus induced cytopathicity by cell based assay; format: functional; settings: strain Oka vaccine
The source made the active and inactive calls. The rule behind the calls is not given here.
MEASURED_METRIC: Activity

Use the examples below as a reference point.
Cc1cn(CCOC(CO)CP(=O)(O)O)c(=O)[nH]c1=O (stereo unspecified) ... inactive
O=c1[nH]cnc2c1ncn2CCOC(COCc1ccccc1)CP(=O)(O)O (stereo unspecified) ... inactive
O=c1ccn(CCOC(CO)CP(=O)(O)O)c(=O)[nH]1 (stereo unspecified) ... inactive
Nc1ncnc2c1ncn2CCOC(CO)CP(=O)(O)O (stereo unspecified) ... inactive
Nc1ncnc2c1ncn2CCOC(COCc1ccccc1)CP(=O)(O)O (stereo unspecified) ... inactive

Here is the next item to consider.
QUERY: Determine reported Activity for CC(CP(=O)(O)O)OCCn1cnc2c(N)nc(N)nc21 (stereo unspecified) ; test system: Human alphaherpesvirus 3.
RESULT: inactive

###

test system: Human alphaherpesvirus 1; assay: Antiviral activity against Herpes simplex virus 1 strain KOS assessed as reduction of virus induced cytopathicity by cell based assay; assay type: functional, organism-based; details: Human alphaherpesvirus 1, KOS
Kindly supply the reported pEC50 values for the records listed here.
// returns pEC50 (minus log10 of molar concentration), number only

QUERY: Supply measured pEC50 of `Nc1nc2c(ncn2COCCO)c(=O)[nH]1` in your reply.
RESULT: 6.52

QUERY: Supply measured pEC50 of Nc1nc2c(ncn2CCOC(CO)CP(=O)(O)O)c(=O)[nH]1 (configuration not stated) in your reply.
RESULT: 3.81

QUERY: Supply measured pEC50 of CCC(CP(=O)(O)O)OCCn1cnc2c(N)ncnc21 (configuration not stated) in your reply.
RESULT: 3.62

QUERY: Supply measured pEC50 of `Nc1ccn(C[C@@H](CO)OCP(=O)(O)O)c(=O)n1` in your reply.
RESULT: 5.89

QUERY: Supply measured pEC50 of Nc1ncnc2c1ncn2CCOC(Cc1ccccc1)CP(=O)(O)O (configuration not stated) in your reply.
RESULT: 4.28

QUERY: Supply measured pEC50 of CC(CP(=O)(O)O)OCCn1cnc2c(N)ncnc21 (configuration not stated) in your reply.
RESULT: 5.89

QUERY: Supply measured pEC50 of Cc1cn(CCOC(C)CP(=O)(O)O)c(=O)[nH]c1=O (configuration not stated) in your reply.
RESULT: 3.77

QUERY: Supply measured pEC50 of `Nc1nc(O)c2ncn(COC(CO)CO)c2n1` in your reply.
RESULT: 7.77

QUERY: Supply measured pEC50 of O=c1[nH]cnc2c1ncn2CCOC(CO)CP(=O)(O)O (configuration not stated) in your reply.
RESULT: 3.68

QUERY: Supply measured pEC50 of CC(CP(=O)(O)O)OCCn1ccc(=O)[nH]c1=O (configuration not stated) in your reply.
RESULT: 4.37

###

experiment: Selectivity index, ratio CC50 for human HEL cells to EC50 for Herpes simplex virus 2 strain G; assay type: toxicity, cell-based; conditions: read-out: Ratio CC50/EC50
MEASURED_METRIC: selectivity ratio
Respond with the number and no other words.

QUERY: Supply measured selectivity ratio of CC(CP(=O)(O)O)OCCn1cnc2c(N)ncnc21 (configuration not stated) in your reply.
RESULT: 6

QUERY: Supply measured selectivity ratio of `Nc1ccn(C[C@@H](CO)OCP(=O)(O)O)c(=O)n1` in your reply.
RESULT: 322

###

Kindly supply the reported MCC at 72 h values for the records listed here.
assay: Cytotoxicity against human HEL cells assessed as alteration of cell morphology after 3 days by microscopic analysis; format: cell-based

QUERY: Supply measured MCC at 72 h of CC(CP(=O)(O)O)OCCn1cnc2c(N)ncnc21 (configuration not stated) in your reply.
RESULT: 322 µM

QUERY: Supply measured MCC at 72 h of `Nc1nc2c(ncn2COCCO)c(=O)[nH]1` in your reply.
RESULT: > 444 µM

QUERY: Supply measured MCC at 72 h of Nc1ncnc2c1ncn2CCOC(Cc1ccccc1)CP(=O)(O)O (configuration not stated) in your reply.
RESULT: > 265 µM

QUERY: Supply measured MCC at 72 h of `Nc1ccn(C[C@@H](CO)OCP(=O)(O)O)c(=O)n1` in your reply.
RESULT: > 317 µM

QUERY: Supply measured MCC at 72 h of `Nc1nc(O)c2ncn(COC(CO)CO)c2n1` in your reply.
RESULT: > 394 µM

QUERY: Supply measured MCC at 72 h of Cc1cn(CCOC(C)CP(=O)(O)O)c(=O)[nH]c1=O (configuration not stated) in your reply.
RESULT: > 342 µM

QUERY: Supply measured MCC at 72 h of O=c1[nH]cnc2c1ncn2CCOC(CO)CP(=O)(O)O (configuration not stated) in your reply.
RESULT: > 315 µM

QUERY: Supply measured MCC at 72 h of CC(CP(=O)(O)O)OCCn1ccc(N)nc1=O (configuration not stated) in your reply.
RESULT: > 361 µM

QUERY: Supply measured MCC at 72 h of CCC(CP(=O)(O)O)OCCn1cnc2c(N)ncnc21 (configuration not stated) in your reply.
RESULT: > 317 µM

QUERY: Supply measured MCC at 72 h of Nc1nc2c(ncn2CCOC(COCc2ccccc2)CP(=O)(O)O)c(=O)[nH]1 (configuration not stated) in your reply.
RESULT: > 240 µM

QUERY: Supply measured MCC at 72 h of CC(CP(=O)(O)O)OCCn1ccc(=O)[nH]c1=O (configuration not stated) in your reply.
RESULT: > 360 µM

QUERY: Supply measured MCC at 72 h of Nc1nc2c(ncn2CCOC(CO)CP(=O)(O)O)c(=O)[nH]1 (configuration not stated) in your reply.
RESULT: > 300 µM

###

test system: Vaccinia virus; experiment: Antiviral activity against Vaccinia virus Lederle assessed as reduction of virus induced cytopathicity by cell based assay; assay type: functional, organism-based; settings: Orthopoxvirus vaccinia
MEASURED_METRIC: EC50

QUERY: Supply measured EC50 of Nc1nc2c(ncn2CCOC(COCc2ccccc2)CP(=O)(O)O)c(=O)[nH]1 (stereo unspecified) in your reply.
RESULT: > 240 µM

QUERY: Supply measured EC50 of O=c1[nH]cnc2c1ncn2CCOC(CO)CP(=O)(O)O (stereo unspecified) in your reply.
RESULT: > 315 µM

QUERY: Supply measured EC50 of CC(CP(=O)(O)O)OCCn1cnc2c(N)ncnc21 (stereo unspecified) in your reply.
RESULT: 27 µM

QUERY: Supply measured EC50 of CCC(CP(=O)(O)O)OCCn1cnc2c(N)ncnc21 (stereo unspecified) in your reply.
RESULT: > 317 µM

QUERY: Supply measured EC50 of Nc1nc2c(ncn2COCCO)c(=O)[nH]1 [ACYCLOVIR] in your reply.
RESULT: > 250 µM

QUERY: Supply measured EC50 of Nc1ncnc2c1ncn2CCOC(Cc1ccccc1)CP(=O)(O)O (stereo unspecified) in your reply.
RESULT: > 265 µM

QUERY: Supply measured EC50 of Nc1nc2c(ncn2CCOC(CO)CP(=O)(O)O)c(=O)[nH]1 (stereo unspecified) in your reply.
RESULT: > 300 µM

QUERY: Supply measured EC50 of Nc1nc(O)c2ncn(COC(CO)CO)c2n1 [GANCICLOVIR] in your reply.
RESULT: > 100 µM

QUERY: Supply measured EC50 of CC(CP(=O)(O)O)OCCn1ccc(N)nc1=O (stereo unspecified) in your reply.
RESULT: > 361 µM

QUERY: Supply measured EC50 of CC(CP(=O)(O)O)OCCn1ccc(=O)[nH]c1=O (stereo unspecified) in your reply.
RESULT: > 360 µM

QUERY: Supply measured EC50 of Cc1cn(CCOC(C)CP(=O)(O)O)c(=O)[nH]c1=O (stereo unspecified) in your reply.
RESULT: > 342 µM

Data credit: ChEMBL document CHEMBL1806434
